Would you kindly list EC50 for each of these compounds?
Molecular target: GK (glucokinase, residues 12-465) (Homo sapiens, UniProt P35557)
Construct: I.D. No. 1 corresponds to residues 12-465 of glucokinase
Sequence (P35557 with tags, fused parts or gaps isoform P35557-2): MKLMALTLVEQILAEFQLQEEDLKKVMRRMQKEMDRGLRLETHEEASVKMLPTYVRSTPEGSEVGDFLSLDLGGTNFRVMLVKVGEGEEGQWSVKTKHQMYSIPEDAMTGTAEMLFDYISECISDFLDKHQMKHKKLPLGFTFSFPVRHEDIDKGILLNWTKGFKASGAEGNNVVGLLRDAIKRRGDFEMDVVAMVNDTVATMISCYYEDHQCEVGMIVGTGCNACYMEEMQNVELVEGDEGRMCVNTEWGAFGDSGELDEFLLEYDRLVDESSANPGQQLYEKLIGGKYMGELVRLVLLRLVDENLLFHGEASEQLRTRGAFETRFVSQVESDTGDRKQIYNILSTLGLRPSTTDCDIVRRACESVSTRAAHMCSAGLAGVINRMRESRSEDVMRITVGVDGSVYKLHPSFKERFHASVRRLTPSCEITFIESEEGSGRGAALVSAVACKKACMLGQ
Test: enzymatic glucokinase activity assay (ATP consumption, KinaseGlo luminescence)
Conditions: Kact = concentration that displays 50% of the maximal increase in GK activity; 5 μM ATP, 5 mM Glucose, 60 min, room temperature; reported as bins; read-out: pKact

## Task Given the compound N#Cc1cnc(NC(=O)[C@H](CC2CCOCC2)n2ncc3c(S(=O)(=O)C4CC4)cccc32)s1 [Compound 136] , write its reported EC50.
## Result 398 to 1260 nM

## Task Given the compound O=C(Nc1ncc(F)s1)[C@H](CC1CCOCC1)n1ncc2c(S(=O)(=O)C3CC3)cc(F)cc21 [Compound 123] , write its reported EC50.
## Result ≤ 316 nM

## Task Given the compound O=C(Nc1ncc(F)s1)[C@H](CC1CCOCC1)n1ncc2c(S(=O)(=O)C3CC3)cc(O)cc21 [Compound 76] , write its reported EC50.
## Result ≤ 316 nM

## Task Given the compound Cc1ccc2c(cnn2C(CC2CCOCC2)C(=O)Nc2cnccn2)c1S(=O)(=O)C1CC1 (stereo not shown) [Compound 157] , write its reported EC50.
## Result 398 to 1260 nM

## Task Given the compound O=C(Nc1ncc(F)s1)C(CC1CCOCC1)n1cc2c(S(=O)(=O)C3CC3)cncc2n1 (stereo not shown) [Compound 140] , write its reported EC50.
## Result ≥ 15800 nM

## Task Given the compound O=C(Nc1ncc(Cl)s1)C(CC1CCOCC1)n1cc2cc(S(=O)(=O)C3CC3)ccc2n1 (stereo not shown) [Compound 51] , write its reported EC50.
## Result 398 to 1260 nM

## Task Given the compound O=C(Nc1ncc(F)s1)[C@H](CC1CCOCC1)n1ncc2c(S(=O)(=O)C3CC3)cncc21 [Compound 84] , write its reported EC50.
## Result ≤ 316 nM

## Task Given the compound O=C(NC1CC1)c1nn(C(CC2CCOCC2)C(=O)Nc2ncc(Cl)s2)cc1Cl (stereo not shown) [Compound 8] , write its reported EC50.
## Result 3980 to 12600 nM

## Task Given the compound O=C(Nc1ncc(F)s1)C(CC1CCOCC1)n1cc2c(S(=O)(=O)C3CC3)c(F)ccc2n1 (stereo not shown) [Compound 148] , write its reported EC50.
## Result 3980 to 12600 nM

## Task Given the compound NC(=O)c1ccc(NC(=O)C(CC2CCOCC2)n2ncc3c(S(=O)(=O)C4CC4)cc(F)cc32)nc1 (stereo not shown) [Compound 117] , write its reported EC50.
## Result ≤ 316 nM

## Task Given the compound O=C(Nc1ncc(Cl)s1)[C@H](CC1CCCC1)n1cc(S(=O)(=O)C2CC2)cn1 [Compound 39] , write its reported EC50.
## Result 1580 to 3160 nM

## Task Given the compound O=C(Nc1ncc(F)s1)C(CC1CCOCC1)n1ncc2c(S(=O)(=O)C3CC3)cc(O)cc21 (stereo not shown) [Compound 130] , write its reported EC50.
## Result ≤ 316 nM

## Task Given the compound COc1ccc2c(cnn2C(CC2CCOCC2)C(=O)Nc2cnccn2)c1S(=O)(=O)C1CC1 (stereo not shown) [Compound 91] , write its reported EC50.
## Result 398 to 1260 nM

## Task Given the compound O=C(Nc1ncc(F)s1)[C@H](CC1CCOCC1)n1ncc2c(S(=O)(=O)C3CC3)ccnc21 [Compound 138] , write its reported EC50.
## Result 398 to 1260 nM

## Task Given the compound COc1ccc2c(cnn2[C@@H](CC2CCOCC2)C(=O)Nc2ncc(F)s2)c1S(=O)(=O)C1CC1 [Compound 82] , write its reported EC50.
## Result ≤ 316 nM

## Task Given the compound O=C(Nc1ncc(F)s1)C(CC1CCOCC1)n1ncc2c(S(=O)(=O)C3CC3)cncc21 (stereo not shown) [Compound 13] , write its reported EC50.
## Result ≤ 316 nM

----------
Molecular target: GK (glucokinase, residues 12-465) (Homo sapiens, UniProt P35557)
Construct: I.D. No. 1 corresponds to residues 12-465 of glucokinase; made in house; host or cells: DH10b-T1r E. coli
Test: enzymatic glucokinase activity assay (ATP consumption, KinaseGlo luminescence)
Type: biochemical
Conditions: calculated maximal gain in GK enzyme activity at a saturating concentration of the compound; 5 μM ATP, 5 mM Glucose; reported as bins; read-out: % ACTmax
recorded_metric: Emax

## Task Write down the reported Emax (system: GK (glucokinase, residues 12-465) (Homo sapiens, UniProt P35557)) of `O=C(Nc1ncc(F)s1)[C@H](CC1CCOCC1)n1ncc2c(S(=O)(=O)C3CC3)ccnc21`
## Result 90 to 100%

## Task Write down the reported Emax (system: GK (glucokinase, residues 12-465) (Homo sapiens, UniProt P35557)) of N#Cc1cnc(NC(=O)C(CC2CCOCC2)n2ncc3c(S(=O)(=O)C4CC4)cccc32)s1 (stereo not shown)
## Result ≥ 111%

## Task Write down the reported Emax (system: GK (glucokinase, residues 12-465) (Homo sapiens, UniProt P35557)) of O=C(Nc1cnccn1)C(CC1CCOCC1)n1ncc2c(S(=O)(=O)C3CC3)c(F)ccc21 (stereo not shown)
## Result 106 to 110%

## Task Write down the reported Emax (system: GK (glucokinase, residues 12-465) (Homo sapiens, UniProt P35557)) of O=C1CC[C@H](CC(C(=O)Nc2cnccn2)n2ncc3c(S(=O)(=O)C4CC4)cccc32)C1 (stereo partly shown)
## Result ≤ 90%

----------
Target: GK (glucokinase, residues 12-465) (Homo sapiens, UniProt P35557)
Construct: I.D. No. 1 corresponds to residues 12-465 of glucokinase; made in house; host or cells: DH10b-T1r E. coli
Experiment: enzymatic glucokinase activity assay (ATP consumption, KinaseGlo luminescence)
Assay type: biochemical
Conditions: calculated maximal gain in GK enzyme activity at a saturating concentration of the compound; 5 μM ATP, 5 mM Glucose; reported as bins; read-out: % ACTmax
Text: The activity of compounds as glucokinase activators may be assayed in vitro, in vivo or in a cell line. Provided below is an enzymatic glucokinase activity assay. Purified glucokinase may be obtained as follows. […] SEQ. […] Recombinant protein may be isolated from cellular extracts by passage over Sepharose Q Fast Flow resin (Pharmacia). […] The purity of GK may be determined on denaturing SDS-PAGE gel. […]
recorded_metric: Emax

## Task Given the molecule COc1ccc2c(cnn2[C@@H](CC2CCOCC2)C(=O)Nc2ncc(F)s2)c1S(=O)(=O)C1CC1 [Compound 82] , write its reported Emax.
## Result 106 to 110%

## Task Given the molecule O=C(Nc1cnccn1)C(CC1CCOCC1)n1ncc2c(S(=O)(=O)C3CC3)cc(F)cc21 (stereo not drawn) [Compound 103] , write its reported Emax.
## Result 101 to 105%

## Task Given the molecule Cc1cc(S(=O)(=O)C2CC2)c2cnn(C(CC3CCOCC3)C(=O)Nc3ncc(F)s3)c2c1 (stereo not drawn) [Compound 122] , write its reported Emax.
## Result ≥ 111%

## Task Given the molecule O=C1CC[C@H](C[C@@H](C(=O)Nc2cnccn2)n2ncc3c(S(=O)(=O)C4CC4)cccc32)C1 [Compound 74] , write its reported Emax.
## Result 90 to 100%

## Task Given the molecule Cn1ccc(NC(=O)C(CC2CCOCC2)n2ncc3c(S(=O)(=O)C4CC4)c(F)ccc32)n1 (stereo not drawn) [Compound 152] , write its reported Emax.
## Result 106 to 110%

## Task Given the molecule COc1ccc2c(cnn2[C@@H](CC2CCOCC2)C(=O)Nc2ccn(C)n2)c1S(=O)(=O)C1CC1 [Compound 109] , write its reported Emax.
## Result 101 to 105%

## Task Given the molecule O=C(Nc1cnccn1)[C@@H](CC1CCOCC1)n1ncc2c(S(=O)(=O)C3CC3)cccc21 [Compound 90] , write its reported Emax.
## Result 90 to 100%

## Task Given the molecule O=C(Nc1cnccn1)C(CC1CCOCC1)n1cc2c(S(=O)(=O)C3CC3)c(F)ccc2n1 (stereo not drawn) [Compound 156] , write its reported Emax.
## Result 101 to 105%

## Task Given the molecule O=C(Nc1ncc(Cl)s1)[C@@H](CC1CCCC1)n1cc(S(=O)(=O)C2CC2)cn1 [Compound 38] , write its reported Emax.
## Result ≥ 111%

## Task Given the molecule O=C(Nc1ncc(F)s1)C(CC1CCOCC1)n1ncc2c(S(=O)(=O)C3CC3)cccc21 (stereo not drawn) [Compound 66] , write its reported Emax.
## Result 101 to 105%

## Task Given the molecule N#Cc1cnc(NC(=O)[C@H](CC2CCOCC2)n2ncc3c(S(=O)(=O)C4CC4)cccc32)s1 [Compound 136] , write its reported Emax.
## Result ≥ 111%

## Task Given the molecule N#Cc1cc(S(=O)(=O)C2CC2)c2cnn([C@H](CC3CCOCC3)C(=O)Nc3ncc(F)s3)c2c1 [Compound 132] , write its reported Emax.
## Result 90 to 100%

## Task Given the molecule Cn1ccc(NC(=O)C(CC2CCOCC2)n2ncc3c(S(=O)(=O)C4CC4)cc(Cl)cc32)n1 (stereo not drawn) [Compound 101] , write its reported Emax.
## Result 90 to 100%

## Task Given the molecule O=C(Nc1ncc(F)s1)C(CC1CCOCC1)n1ncc2c(S(=O)(=O)C3CC3)c(O)ccc21 (stereo not drawn) [Compound 144] , write its reported Emax.
## Result 106 to 110%

## Task Given the molecule O=C(Nc1ncc(F)s1)C(CC1CCCC1)n1ncc2c(S(=O)(=O)C3CC3)cccc21 (stereo not drawn) [Compound 62] , write its reported Emax.
## Result 90 to 100%

Attribution: patent US8563730B2
